- System: MS2 coat protein
- method notes: apparent KD of MS2 coat protein, switch OFF state (with FMN for OFF switches, without FMN for ON switches); designed switch direction (-1 OFF switch, 1 ON switch): -1; higher = weaker reporter binding
- assay setup: FMN input: 0 or 200 uM; Eterna round: R93 (includes R88 designs)
Would you mind labelling by apparent KD of MS2 coat protein? At or over 40 nM is Y, under is N.

[[record]]
polymer_sequence = "AAAAAGGUAGGAUAUGCUAAAUAACAUGUUGAAUAAAUAAAACAUGAGGAUCACCCAUGUAGAAGGACCAAAAA [Ex 2 Tesla 2]"
class_assignment = "Y"

[[record]]
polymer_sequence = "AUGGUAGGAGGAUAUACAUAGAUACAGAUACAUGUAGACGUACAUGAGGAUCACCCAUGUAGAAGGCCUAUAAA [Mat - Same state - Mayanna Mod - D150]"
class_assignment = "Y"

[[record]]
polymer_sequence = "AAAAAACAUGAGGAUCACCCAUGUAAGGAUAUGUGAAAAAAAAAAUAAAAAAAAAAAAGCAGAAGGUACAAAAA [LROPPY Exclusion 1 - v01_deltaG=3.64]"
class_assignment = "Y"

[[record]]
polymer_sequence = "AGUUAGUCAGGAUAUGCGUGAAGAAUAAAAGAAAUAACAACGCAGAAGGGACAUGAGGAUCACCCAUGUAAACA [May 55]"
class_assignment = "N"

[[record]]
polymer_sequence = "AAGAAGUCAGGAUAUGCCAAAGAUCACGAAAGUGACUAAGGGCAGAAGGGACAUGAGGAUCACCCAUGUAAAGA [Opal 4]"
class_assignment = "Y"

[[record]]
polymer_sequence = "AAAACACAUGAGGAUCACCCAUGUGAGGAUAUGCUAUGGAAAAUAAAAAUAAAACAUAGCAGAAGGCGCAGGAA [Denovo 20]"
class_assignment = "N"


All figures here come from the supplement of paper PMC9170038.
